# Test system: Moraxella catarrhalis (BCA)
# assay_remarks: MIC, two-fold agar dilution (CLSI), clinical isolates
# Assay type: cell-based
# measurement_conditions: strain BCA 14-1
experimental_endpoint: MIC (anti-bacterial activity) (µg/mL)
Respond numerically; units are µg/mL and should not be typed.

Consider the reported MIC (anti-bacterial activity) for these molecules:
> print(dat)
                                test.smiles  unit.spec  data.value
1  CC(C)(C)c1cc(NC(=O)[C@@H]2CC3(CC3)CN2C(=O)[C@H](CC2CCCC2)CN(O)C=O)no1      µg/mL        0.25
2  O=CN(O)C[C@@H](CC1CCCC1)C(=O)N1CC2(CC2)C[C@H]1C(=O)Nc1cc[nH]n1      µg/mL           4
3  O=CN(O)C[C@@H](CC1CCCC1)C(=O)N1CC2(CC2)C[C@H]1C(=O)Nc1ccc(F)cn1      µg/mL           1
4  CCCC[C@H](CN(O)C=O)C(=O)N1CC2(CC2)C[C@H]1C(=O)Nc1ccc(N2CCOCC2)cc1      µg/mL           4
5  Cc1csc(NC(=O)[C@@H]2CC3(CC3)CN2C(=O)[C@H](CC2CCCC2)CN(O)C=O)n1      µg/mL        0.25

Find the measured MIC (anti-bacterial activity): item "Cc1cnc(NC(=O)[C@@H]2CC3(CC3)CN2C(=O)[C@H](CC2CCCC2)CN(O)C=O)s1" , target or system Moraxella catarrhalis (BCA).
0.5

Find the measured MIC (anti-bacterial activity): item "CCCC[C@H](CN(O)C=O)C(=O)N1CC2(CC2)C[C@H]1C(=O)Nc1cnccn1" , target or system Moraxella catarrhalis (BCA).
0.5
